All figures here come from PubChem BioAssay.

# test_details: MRP1 drug-resistance reversers in H69AR cells – cell-based, doxorubicin co-treatment, pilot screen (AID 601)
# measurement_conditions: H69AR cells + 2 uM doxorubicin, CellTiter-Glo, 72 h; measured here: viability with 2 uM doxorubicin; at 10 µM; stronger effect = lower value
property_label: viability (%)
Numbers only, in %.

molecule | reported
CN1CCN(c2c[nH]c(=O)[nH]c2=O)CC1 | 91.6
C=CCn1c(O)c(C(C)=NCCCO)c(=O)[nH]c1=O | 92.1
C=CCn1c(O)c(C(C)=NCc2cccnc2)c(=O)[nH]c1=O | 87.4
CN(C)c1cc(N)c2c(n1)CCC2 (tested in a mixture with another compound) | 87.6
Cc1cc(OCC(=O)O)c2c3c(c(=O)oc2c1)CCCC3 | 87.9
c1cncc(CNC2=NCCCCC2)c1 | 91.3
CNP1(NC)=NC(C(F)(F)F)=NC(C(F)(F)F)=N1 | 91.2

Then this molecule:
Exam item: // query viability value for entry `CCOP(=S)(OCC)c1ccc(N(C)C)cc1`
Marked response: 87.5

====

Could you please report measured inhibition for the items listed next?
# measured_on: Pantothenate synthetase (Mycobacterium tuberculosis (strain ATCC 25618 / H37Rv)) (UniProt P9WIL5)
# Sequence (P9WIL5 whole entry, looked up): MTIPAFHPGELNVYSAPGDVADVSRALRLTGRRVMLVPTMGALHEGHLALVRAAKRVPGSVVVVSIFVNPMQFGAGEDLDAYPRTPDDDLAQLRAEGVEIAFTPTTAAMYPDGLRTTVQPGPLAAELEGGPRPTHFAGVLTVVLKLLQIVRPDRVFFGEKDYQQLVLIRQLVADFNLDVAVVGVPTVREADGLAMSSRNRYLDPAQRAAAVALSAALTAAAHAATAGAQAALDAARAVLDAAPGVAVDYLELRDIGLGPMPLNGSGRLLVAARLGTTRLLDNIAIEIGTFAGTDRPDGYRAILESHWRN
# test_details: Coupled enzyme confirmation of inhibitors against recombinant Mtb PanC (AID 375);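 note: 0% = full reaction with vehicle and 100% = no enzyme background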
# measurement_conditions: coupled enzyme assay; at 10 µM, stronger effect = higher value
One number for each entry, in %.

compound | property_label | reported
COC(=O)c1cc2oc(C)cc2n1CC(=O)N(C)c1ccccc1 | inhibition | 0

Below are 8 compounds. Give each one its inhibition.
1. COc1ccc(-c2nn3c(-c4cccc(C)c4)nnc3s2)cc1OC
2. Cc1ccccc1CN1CCN(C(=O)c2cccc(F)c2)CC1
3. CCn1cc(C2Nc3ccccc3C(=O)N2O)c(C)n1 (stereo not drawn)
4. COc1cccc(CN2CCN(C(=O)CC(C)C)CC2)c1
5. N#Cc1cc2ccccc2nc1SCC(=O)Nc1ccccc1N1CCOCC1
6. O=C(c1ccco1)N1CCN(C(=O)c2ccc(Cn3cc(Br)cn3)o2)CC1
7. CCOc1ccc(-c2nnc(N)s2)cc1
8. Cn1cc(Br)c(C(=O)NC2CCCCC2)n1

Marked response:
1: 4; 2: 0; 3: 0; 4: 6; 5: 0; 6: 4; 7: 0; 8: 4

Kindly give each listed record's inhibition.
1. COc1ccc(Cl)c(NCCC(=O)O)c1
2. Cc1occc1-c1nc(-c2ccncc2)no1
3. CCOC(=O)c1c(NC(=O)Cn2c(=O)oc3ccccc32)oc(C)c1C(C)=O
4. O=C(O)CCC(=O)NC1CCCCC1NC(=O)CCC(=O)O (stereo not drawn)

Marked response:
0
3
0
0

====

# measured_on: Pantothenate synthetase (Mycobacterium tuberculosis (strain ATCC 25618 / H37Rv)) (UniProt P9WIL5)
# test_details: Coupled enzyme confirmation of inhibitors against recombinant Mtb PanC (AID 375);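 note: 0% = full reaction with vehicle and 100% = no enzyme background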
# measurement_conditions: coupled enzyme assay; at 10 µM, stronger effect = higher value
Could you please report measured inhibition for the items listed next?
One number for each entry, in %.

Known results for molecules:
molecule | inhibition / %
O=C(COc1ccccc1)Nc1nc2ccccc2[nH]1 | 0
CCOC(=O)C1CCN(C(=O)c2ccc(Cl)c(Cl)c2)CC1 | 8
CC(C)OC(=O)c1c(N)n(CC2CCCO2)c2nc3ccccc3nc12 (stereo not given) | 5
CN/C(=C/[N+](=O)[O-])NCCSCc1ccc(CN(C)C)o1 | 4
CCC(C)N=C1SCC(C)(/C=N/O)S1 (stereo not given) | 0

Provide reported inhibition for each item, in the same order as listed.
1. Cc1ccc(-c2nnc(N(C)C(=O)c3ccccn3)s2)cn1
2. CC(=O)c1c(OCC(=O)O)ccc2c(C)cc(=O)oc12

Marked response:
[0, 0]

Lab note: each molecule below needs its inhibition filled in.
1. O=C(CN1C(=O)c2cccc3cccc1c23)N1CCN(c2ccccc2)CC1
2. CCOC(=O)c1cc2sccc2n1CC(=O)Nc1ccc(OC)cc1OC
3. CC(C)c1ncc(C(O)c2cccc3ccccc23)n1C (stereo not given)
4. CCOC(=O)N1CCN(C(=O)CN(c2ccc(C)cc2)S(=O)(=O)c2c(C)noc2C)CC1
5. CCSc1nnc(NC(=O)C2CCCN(S(=O)(=O)c3cnc[nH]3)C2)s1 (stereo not given)
6. COc1cc2nc(C3CCC3)n(NC(=O)C3CCCC(OC)C3)c(=O)c2cc1OC (stereo not given)

Marked response:
1: 0; 2: 0; 3: 0; 4: 0; 5: 7; 6: 2

Take each entry in turn and give its inhibition.
1. CCOC(=O)C1CCCN(Cc2nc(N)nc(Nc3ccc(C)cc3)n2)C1 (stereo not given)
2. O=c1cnnc(NCc2ccccc2)[nH]1
3. C/C(=C\C(=O)O)CC(=O)O

Marked response:
[0, 0, 0]

State recorded inhibition for all listed molecules.
1. COc1ccc(C(=O)NC(=O)CSc2nnc(-c3ccco3)n2-c2ccccc2)cc1
2. C=CCn1c(SCC(=O)NCCCC)nc2scc(-c3ccco3)c2c1=O
3. O=C1c2ccccc2C(Nc2ccc3c(c2)OCCO3)N1Cc1ccco1 (stereo not given)

Marked response:
[0, 0, 0]

Provide each entry's inhibition from the list below.
1. Cc1cccc2cc(C#N)c(NCCNC(=O)NC3CCCCC3)nc12
2. CN(Cc1ccccc1)Cc1nc2c([nH]1)c(=O)[nH]c(=O)n2C
3. O=C(Nc1ccc(Cc2ccc(NC(=O)N3CCOCC3)cc2)cc1)N1CCOCC1
4. CC1CCC(NC(=O)C2(C)CCC(=O)N2Cc2cccnc2)CC1 (stereo not given)
5. Cc1cc(C)nc(N2CCC(C(=O)Nc3ccc4c(c3)CCC4)CC2)n1
6. CC1CN(CC(O)COc2ccc(C(C)C)cc2)CC(C)O1 (stereo not given)

Marked response:
1. 1
2. 7
3. 2
4. 0
5. 5
6. 0

====

Task for the reader: assign each of the following compounds its reported inhibition.
# measured_on: Pantothenate synthetase (Mycobacterium tuberculosis (strain ATCC 25618 / H37Rv))
# test_details: Coupled enzyme confirmation of inhibitors against recombinant Mtb PanC (AID 375);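 note: 0% = full reaction with vehicle and 100% = no enzyme background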
# measurement_conditions: coupled enzyme assay; at 10 µM, stronger effect = higher value
Answers are plain numbers, in %.

Before answering, review these 5 worked examples.
compound | measured_on | inhibition [%]
Cc1nc(SCCC(=O)O)c2ccccc2n1 | Pantothenate synthetase (Mycobacterium tuberculosis (strain ATCC 25618 / H37Rv)) | 6
Fc1cccc(Cl)c1Cn1nnc2c(NCc3ccccn3)ncnc21 | Pantothenate synthetase (Mycobacterium tuberculosis (strain ATCC 25618 / H37Rv)) | 0
O=C(c1ccco1)N1CCN(CCCCN2C(=O)c3ccccc3C2=O)CC1 | Pantothenate synthetase (Mycobacterium tuberculosis (strain ATCC 25618 / H37Rv)) | 5
CC(=O)O[C@H]1CSC[C@H]1NC(=O)c1ccccc1 | Pantothenate synthetase (Mycobacterium tuberculosis (strain ATCC 25618 / H37Rv)) | 0
COc1cc(-c2nc(S(=O)(=O)c3ccc(C)cc3)c(N(C)C)o2)cc(OC)c1OC | Pantothenate synthetase (Mycobacterium tuberculosis (strain ATCC 25618 / H37Rv)) | 3

Quick request: inhibition for each listed item, please.
1. CC1(C)Cc2c(sc3ncnc(N)c23)CO1
2. CN1CCN(C2=C(Cl)C(=O)N(c3cccc(Cl)c3)C2=O)CC1
3. O=C(c1ccccc1F)N1CCN(Cc2cccc(Cl)c2)CC1
4. CCOc1ccc(CNc2ccc3c(c2)ncn3C)cc1
5. Cc1csc(NC(=O)c2sc3nc(-c4cccs4)ccc3c2N)n1

Marked response:
[14, 3, 5, 0, 5]

====

# measured_on: Pantothenate synthetase (Mycobacterium tuberculosis (strain ATCC 25618 / H37Rv))
# test_details: Coupled enzyme confirmation of inhibitors against recombinant Mtb PanC (AID 375);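 note: 0% = full reaction with vehicle and 100% = no enzyme background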
# measurement_conditions: coupled enzyme assay; at 10 µM, stronger effect = higher value
I would appreciate it if you labelled entries satisfied when inhibition is 1% or higher, otherwise not satisfied.

compound | measured_on | class_assignment
O=S(=O)(NC1CCCCC1NS(=O)(=O)c1ccc(F)cc1)c1ccc(F)cc1 (stereo not given) | Pantothenate synthetase (Mycobacterium tuberculosis (strain ATCC 25618 / H37Rv)) | not satisfied
Cc1nc2nc(Cc3ccccc3)[nH]n2c(=O)c1Cc1ccccc1 | Pantothenate synthetase (Mycobacterium tuberculosis (strain ATCC 25618 / H37Rv)) | satisfied
CCOP(=S)(OCC)c1ccc(N(C)C)cc1 | Pantothenate synthetase (Mycobacterium tuberculosis (strain ATCC 25618 / H37Rv)) | not satisfied

Exam item: Quick check, inhibition >= 1%? `CCOC(=O)N1CCN(c2cc(=O)n(-c3ccc(OCC)cc3)c(=O)[nH]2)CC1`
Marked response: satisfied

Exam item: Input O=C1CSC(c2cccc(F)c2)N1c1ccccc1F (stereo not given)
Marked response: satisfied

Exam item: Now the compound `CC(C)[C@H](NC(=O)NCc1ccc(Cl)cc1)C(=O)O`
Marked response: not satisfied

Exam item: For `C=CCn1cnc2c(NCc3ccccc3)ncnc21` then?
Marked response: satisfied

Exam item: Same thing, different compound: `CCC(=O)N1CCN(CCN=CC2=C(O)CC(C)(C)CC2=O)CC1`
Marked response: not satisfied

Exam item: Moving on to the next compound: CC(Oc1ccc(Br)cc1)C(=O)N1CCc2ccccc21 (stereo not given)
Marked response: not satisfied
